Target: Activin receptor type-1 (Mus musculus, UniProt P37172)
Sequence (P37172 whole entry): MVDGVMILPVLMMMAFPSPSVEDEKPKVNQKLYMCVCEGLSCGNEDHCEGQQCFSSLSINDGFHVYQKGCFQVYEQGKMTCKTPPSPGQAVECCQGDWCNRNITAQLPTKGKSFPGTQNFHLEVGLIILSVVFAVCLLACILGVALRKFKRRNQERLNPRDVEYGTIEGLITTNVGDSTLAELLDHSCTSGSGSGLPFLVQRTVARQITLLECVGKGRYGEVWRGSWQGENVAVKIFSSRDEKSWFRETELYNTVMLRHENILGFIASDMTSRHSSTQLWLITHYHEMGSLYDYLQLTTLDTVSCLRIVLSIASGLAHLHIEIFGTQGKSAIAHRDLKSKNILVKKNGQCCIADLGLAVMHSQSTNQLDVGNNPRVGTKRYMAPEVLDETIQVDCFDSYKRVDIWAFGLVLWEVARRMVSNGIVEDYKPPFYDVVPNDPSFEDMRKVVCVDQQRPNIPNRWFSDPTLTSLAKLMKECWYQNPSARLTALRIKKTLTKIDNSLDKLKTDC
OBSERVABLE: pIC50
Would you please state pIC50, meaning minus log10 of the concentration in mol/L, as a bare number?

Please give measured pIC50 of the following entry: `CC(C)Oc1ccc(-c2cnc3c(-c4ccnc5ccccc45)cnn3c2)cc1` 7.90

###

Read-out record for TGF-beta receptor type-1 (Mus musculus): pIC50
For clarity, pIC50 is expressed as the negative log10 of concentration in mol/L.

compound="c1ccc2c(-c3cnn4cc(-c5ccc(N6CCNCC6)cc5)cnc34)ccnc2c1 [LDN-193189]" quantitative_readout=6.93
compound="c1cc(-c2cnn3cc(-c4ccc(N5CCNCC5)cc4)cnc23)c2cccnc2c1 [LDN-212854]" quantitative_readout=5.03
compound=CC(C)Oc1ccc(-c2cnc3c(-c4ccnc5ccccc45)cnn3c2)cc1 quantitative_readout=5.22

Now take the following compound into account.
Send back TGF-beta receptor type-1 (Mus musculus) pIC50 of `c1cc(-c2cnn3cc(-c4ccc(OCCN5CCCCC5)cc4)cnc23)ccn1` only. 5.11

###

// reported pIC50 per item
Target: Serine/threonine-protein kinase receptor R3 (Mus musculus)
Sequence (Q61288 whole entry): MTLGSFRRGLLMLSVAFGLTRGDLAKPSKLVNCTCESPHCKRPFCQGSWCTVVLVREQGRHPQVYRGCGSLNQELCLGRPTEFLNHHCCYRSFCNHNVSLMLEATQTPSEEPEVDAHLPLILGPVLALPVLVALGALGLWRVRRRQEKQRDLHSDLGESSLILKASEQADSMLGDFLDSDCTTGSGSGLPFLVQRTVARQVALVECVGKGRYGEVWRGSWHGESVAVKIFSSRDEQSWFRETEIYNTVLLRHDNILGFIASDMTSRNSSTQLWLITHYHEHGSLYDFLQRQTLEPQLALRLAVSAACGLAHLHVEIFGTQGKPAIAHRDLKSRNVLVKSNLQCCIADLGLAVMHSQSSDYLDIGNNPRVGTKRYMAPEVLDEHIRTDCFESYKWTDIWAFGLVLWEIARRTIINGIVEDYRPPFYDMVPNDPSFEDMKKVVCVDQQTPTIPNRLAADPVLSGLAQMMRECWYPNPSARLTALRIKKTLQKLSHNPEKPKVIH
Scale explanation: pIC50 corresponds to minus log10 of a concentration expressed in moles per litre.

compound=CC(C)Oc1ccc(-c2cnc3c(-c4ccnc5ccccc45)cnn3c2)cc1 observable=pIC50 quantitative_readout=7.11
compound="COc1cc(-c2cc(-c3cccc(O)c3)cnc2N)cc(OC)c1OC [K02288a]" observable=pIC50 quantitative_readout=8.44
compound=c1cc(-c2cnn3cc(-c4ccc(OCCN5CCCCC5)cc4)cnc23)ccn1 observable=pIC50 quantitative_readout=7.71

Now, please, on to the next compound.
For the compound c1ccc2c(-c3cnn4cc(-c5ccc(N6CCNCC6)cc5)cnc34)ccnc2c1 [LDN-193189] , give its measured pIC50 value. 8.83

###

Molecular target: UniProtKB Q61271
Sequence (Q61271 whole entry): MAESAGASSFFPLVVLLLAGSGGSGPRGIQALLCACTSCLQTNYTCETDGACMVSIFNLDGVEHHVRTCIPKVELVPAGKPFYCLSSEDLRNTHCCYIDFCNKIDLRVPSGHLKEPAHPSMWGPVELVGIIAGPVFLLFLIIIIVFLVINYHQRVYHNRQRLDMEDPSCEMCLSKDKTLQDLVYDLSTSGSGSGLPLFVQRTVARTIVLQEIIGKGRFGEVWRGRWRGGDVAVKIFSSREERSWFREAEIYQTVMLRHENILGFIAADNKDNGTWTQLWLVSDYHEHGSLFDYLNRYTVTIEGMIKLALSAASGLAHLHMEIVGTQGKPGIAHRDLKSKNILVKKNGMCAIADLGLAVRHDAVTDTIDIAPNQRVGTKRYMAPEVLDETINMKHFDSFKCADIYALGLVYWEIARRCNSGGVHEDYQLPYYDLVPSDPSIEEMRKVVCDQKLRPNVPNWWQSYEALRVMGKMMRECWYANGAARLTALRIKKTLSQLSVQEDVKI
OBSERVABLE: IC50 (µM)
Express it in µM; write the number only.

query_smiles=c1cc(-c2cnn3cc(-c4ccc(OCCN5CCCCC5)cc4)cnc23)ccn1 experimental_target="UniProtKB Q61271" quantitative_readout=3.08

Switching to the query record.
Could you please provide reported IC50 for `CC(C)Oc1ccc(-c2cnc3c(-c4ccnc5ccccc45)cnn3c2)cc1` ? Thanks! 11
